Measured values drawn from patent US20250368745A1 for this set.

Target: T1, human IL-18BP (human, UniProt O95998 31-194)
T1 construct: UniProt printed as 095998; also called hIL-18BP
T1 sequence: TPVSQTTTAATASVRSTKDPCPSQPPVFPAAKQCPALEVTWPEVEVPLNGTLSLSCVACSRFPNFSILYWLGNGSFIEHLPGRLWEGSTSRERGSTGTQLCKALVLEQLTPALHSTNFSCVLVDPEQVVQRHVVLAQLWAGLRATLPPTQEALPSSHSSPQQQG
Assay: BLI, apparent KD
pKd: −log10 of the molar value.
As shown below, each of these binders has a reported pKd value.

{"binder": "SA301a HC-I51D (antibody, name in Kabat numbering, V domains shown, IgG1 kappa) VH: QVQLQESGPGLVKPSQTLSLTCTVSGYSITSDYNSHWIRQPPGKGLEWIGYDHYSGSTNYNPSLKSRVTISRDTSKNQFSLKLSSVTAADTAVYYCARNYGSIYVNYFDYWGQGTLVTVSS VL: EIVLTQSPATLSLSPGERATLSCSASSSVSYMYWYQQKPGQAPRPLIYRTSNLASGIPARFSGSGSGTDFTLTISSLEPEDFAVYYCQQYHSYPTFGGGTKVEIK", "pKd": 8.70}
{"binder": "SA301a HC-Y50K (antibody, name in Kabat numbering, V domains shown, IgG1 kappa) VH: QVQLQESGPGLVKPSQTLSLTCTVSGYSITSDYNSHWIRQPPGKGLEWIGKIHYSGSTNYNPSLKSRVTISRDTSKNQFSLKLSSVTAADTAVYYCARNYGSIYVNYFDYWGQGTLVTVSS VL: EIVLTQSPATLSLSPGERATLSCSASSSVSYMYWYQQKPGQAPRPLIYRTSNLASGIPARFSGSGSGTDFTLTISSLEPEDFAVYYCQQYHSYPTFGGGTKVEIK", "pKd": 8.97}
{"binder": "SA301a HC-H52P (antibody, name in Kabat numbering, V domains shown, IgG1 kappa) VH: QVQLQESGPGLVKPSQTLSLTCTVSGYSITSDYNSHWIRQPPGKGLEWIGYIPYSGSTNYNPSLKSRVTISRDTSKNQFSLKLSSVTAADTAVYYCARNYGSIYVNYFDYWGQGTLVTVSS VL: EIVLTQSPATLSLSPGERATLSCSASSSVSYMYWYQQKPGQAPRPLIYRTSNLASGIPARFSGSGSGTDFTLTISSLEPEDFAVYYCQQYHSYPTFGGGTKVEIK", "pKd": 11.00}
{"binder": "SA301a HC-H52S (antibody, name in Kabat numbering, V domains shown, IgG1 kappa) VH: QVQLQESGPGLVKPSQTLSLTCTVSGYSITSDYNSHWIRQPPGKGLEWIGYISYSGSTNYNPSLKSRVTISRDTSKNQFSLKLSSVTAADTAVYYCARNYGSIYVNYFDYWGQGTLVTVSS VL: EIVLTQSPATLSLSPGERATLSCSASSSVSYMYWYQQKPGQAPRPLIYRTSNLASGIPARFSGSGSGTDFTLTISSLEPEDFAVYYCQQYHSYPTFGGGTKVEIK", "pKd": 9.20}
{"binder": "SA301a HC-Y50G (antibody, name in Kabat numbering, V domains shown, IgG1 kappa) VH: QVQLQESGPGLVKPSQTLSLTCTVSGYSITSDYNSHWIRQPPGKGLEWIGGIHYSGSTNYNPSLKSRVTISRDTSKNQFSLKLSSVTAADTAVYYCARNYGSIYVNYFDYWGQGTLVTVSS VL: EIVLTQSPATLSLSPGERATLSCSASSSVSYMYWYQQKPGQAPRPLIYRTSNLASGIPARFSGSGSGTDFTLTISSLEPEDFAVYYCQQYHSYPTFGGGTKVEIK", "pKd": 8.99}
